- Assayed system: Kallikrein-7 (Homo sapiens, UniProt P49862)
- Sequence (P49862 whole entry): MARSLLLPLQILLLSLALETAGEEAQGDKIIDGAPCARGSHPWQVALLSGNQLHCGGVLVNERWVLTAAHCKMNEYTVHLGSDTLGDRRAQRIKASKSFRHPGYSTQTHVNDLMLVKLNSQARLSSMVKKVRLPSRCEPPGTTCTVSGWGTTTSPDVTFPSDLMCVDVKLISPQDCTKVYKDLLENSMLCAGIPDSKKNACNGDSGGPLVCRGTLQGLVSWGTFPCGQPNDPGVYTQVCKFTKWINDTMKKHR
- Method notes: Competitive inhibition of human recombinant KLK7 expressed in baculovirus-infected insect cell system using Abz-KLYSSKQ-Eddnp as substrate incubated for 5 mins prior to substrate addition by Lineweaver-Burk plot analysis
Assignment: determine reported pKi for the given compounds.
One number for each entry, as −log10 of the molar value.

Some entries whose results are on file:
O=C(OC1CO[C@H]2[C@@H]1OC[C@H]2OCc1ccccc1)[C@H](Cc1ccccc1)NC(=O)[C@@H]1CCCN1C(=O)OCc1ccccc1 (single isomer, unassigned)    5.55
O=C(N[C@H]1CO[C@H]2[C@@H]1OC[C@H]2OCc1ccccc1)[C@H]1CCCN1C(=O)OCc1ccccc1    4.82
CC(C)[C@H](NC(=O)OCc1ccccc1)C(=O)N[C@H](Cc1ccccc1)C(=O)N[C@H]1CO[C@H]2[C@@H]1OC[C@H]2OCc1ccccc1    5.42
CC(C)(C)OC(=O)N[C@@H](CC(=O)OCc1ccccc1)C(=O)O[C@@H]1CO[C@H]2[C@@H]1OC[C@H]2OCc1ccccc1    5.89
O=C(O[C@@H]1CO[C@H]2[C@@H]1OC[C@H]2OCc1ccccc1)[C@H]1CCCN1C(=O)OCc1ccccc1    5.72

Note: attention shifts to another entry.
Request: Consider the compound "CC(C)(C)OC(=O)N[C@@H](CCCCNC(=O)OCc1ccccc1)C(=O)N[C@H]1CO[C@H]2[C@@H]1OC[C@H]2OCc1ccccc1" . State its measured pKi.
Response: 5.54

====

- Assayed system: Kallikrein-5 (Homo sapiens, UniProt Q9Y337)
- Sequence (Q9Y337 whole entry): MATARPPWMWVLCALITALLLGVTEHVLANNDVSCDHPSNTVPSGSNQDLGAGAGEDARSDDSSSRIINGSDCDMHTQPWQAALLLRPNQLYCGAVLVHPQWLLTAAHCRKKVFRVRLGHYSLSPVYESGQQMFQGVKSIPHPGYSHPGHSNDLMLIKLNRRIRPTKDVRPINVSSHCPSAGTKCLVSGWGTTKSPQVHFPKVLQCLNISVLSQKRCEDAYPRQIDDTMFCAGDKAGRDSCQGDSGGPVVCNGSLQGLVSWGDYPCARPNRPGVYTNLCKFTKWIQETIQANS
- Method notes: Inhibition of human recombinant KLK5 expressed in baculovirus-infected insect cell system using Abz-KLRSSKQ-Eddnp as substrate incubated for 5 mins prior to substrate addition by FRET assay
Assignment: determine reported pIC50 for the given compounds.
Numbers only, as −log10 of the molar value.

Give me pIC50 for each of these compounds, listed below.
1. CC(C)[C@@H](NC(=O)OC(C)(C)C)C(=O)O[C@@H]1CO[C@H]2[C@@H]1OC[C@H]2OCc1ccccc1
2. Cc1ccc(S(=O)(=O)n2cnc(C[C@H](NC(=O)OC(C)(C)C)C(=O)N[C@H]3CO[C@H]4[C@@H]3OC[C@H]4OCc3ccccc3)c2)cc1
3. CC(C)(C)OC(=O)N[C@@H](CCCCNC(=O)OCc1ccccc1)C(=O)N[C@H]1CO[C@H]2[C@@H]1OC[C@H]2OCc1ccccc1
4. CC(C)(C)OC(=O)N[C@H](COCc1ccccc1)C(=O)O[C@@H]1CO[C@H]2[C@@H]1OC[C@H]2OCc1ccccc1
5. O=C(O[C@@H]1CO[C@H]2[C@@H]1OC[C@H]2OCc1ccccc1)[C@H]1CCCN1C(=O)OCc1ccccc1
6. CC(C)(C)OC(=O)N[C@H](COCc1ccccc1)C(=O)N[C@H]1CO[C@H]2[C@@H]1OC[C@H]2OCc1ccccc1
7. CC(C)(C)OC(=O)N[C@@H](CCCCNC(=O)OCc1ccccc1)C(=O)O[C@@H]1CO[C@H]2[C@@H]1OC[C@H]2OCc1ccccc1
8. CC(C)[C@@H](NC(=O)OC(C)(C)C)C(=O)N[C@H]1CO[C@H]2[C@@H]1OC[C@H]2OCc1ccccc1

Response:
3.65
3.80
4.88
4.81
5.43
4.27
5.05
3.32

Give me pIC50 for each of these compounds, listed below.
1. CSCC[C@H](NC(=O)OC(C)(C)C)C(=O)O[C@@H]1CO[C@H]2[C@@H]1OC[C@H]2OCc1ccccc1
2. CC(C)(C)OC(=O)N[C@@H](CC(=O)OCc1ccccc1)C(=O)O[C@@H]1CO[C@H]2[C@@H]1OC[C@H]2OCc1ccccc1
3. CC(C)[C@H](NC(=O)OCc1ccccc1)C(=O)N[C@H](Cc1ccccc1)C(=O)N[C@H]1CO[C@H]2[C@@H]1OC[C@H]2OCc1ccccc1
4. O=C(N[C@H]1CO[C@H]2[C@@H]1OC[C@H]2OCc1ccccc1)[C@H](Cc1ccccc1)NC(=O)[C@@H]1CCCN1C(=O)OCc1ccccc1
5. CC(C)(C)OC(=O)N1CCC[C@H]1C(=O)O[C@@H]1CO[C@H]2[C@@H]1OC[C@H]2OCc1ccccc1
6. O=C(OC1CO[C@H]2[C@@H]1OC[C@H]2OCc1ccccc1)[C@H](Cc1ccccc1)NC(=O)[C@@H]1CCCN1C(=O)OCc1ccccc1 (single isomer, unassigned)

Response:
1: 3.45; 2: 5.33; 3: 4.66; 4: 3.80; 5: 3.28; 6: 5.41
